Target: COVID-19 S1 Spike Protein Mutant K417N, E484K, N501Y (SARS-CoV-2), P0DTC2
Assay: FP direct binding
Non-standard residues stand in square brackets, D forms with d. No end group written: not given here. Sar = CNCC(=O)O
QUANTITY_KIND: Kd (nM)
Expressed in nM, but write only the number.

Incoming: Requested read-out: Kd. Entry: ACEDHDWVYCSTCA[Sar][Sar][Sar][Sar][Sar][Sar][KFl] (cysteine pairing not given here) [BCY15299]
Outgoing: 676
